measured-target: T1, recombinant cynomolgus IL-25 protein (cynomolgus monkey, UniProt Q9H293 33-177 (human entry), limits assumed)
T1 construct: Bought (Sino Biological Inc, customized order); also called cyno IL-25
T1 chain: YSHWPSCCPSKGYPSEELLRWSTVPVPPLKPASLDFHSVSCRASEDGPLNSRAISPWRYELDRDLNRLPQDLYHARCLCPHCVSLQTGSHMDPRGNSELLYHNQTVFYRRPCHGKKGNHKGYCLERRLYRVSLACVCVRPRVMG
test-name: ELISA, IL-25 coated, goat anti-human kappa light chain-HRP detection
property-measured: EC50 (nM)
Answer in nM, number only, no unit symbol.

Tell me the measured EC50 of IL25Ab10 (antibody, V domains shown) VH: QVQLVQSGAEVKKPGASVKVSCKASGYSFTGYTMNWVRQAPGQGLEWMGLINPDNGGTSYKQKFQGRVTMTVDKSISTAYMELSRLRSDDTAVYYCAREGYYGPSPFHHYAMDYWGQGTLVTVSS VL: DIQMTQSPSSLSASVGDRVTITCQASQDISNYLNWYQQKPDGTIKLLIYYTSTLHTGVPSRFSGSGSGTDYTFTISSLQPEDIATYYCQQYSKLPYTFGQGTKLEIK , please.
0.266
